Tested on: SARS-COV-2
Experiment: SARS-COV-2 infection of veroE6 kidney epithelial cells (immunofluorescence microscopy)
Assay type: cell-based
Conditions: Severe acute respiratory syndrome coronavirus 2, Vero C1008, read-out: EC50 of antiviral activity in SARS-COV-2 infections
recordedEndpoint: pEC50
pEC50 is a log-scale quantity: -log10 of the concentration expressed in molar.

Could you share which pEC50 value was measured for Clc1ccccc1CNCC1CCC(CNCc2ccccc2Cl)CC1 (stereo not shown) ?
6.00

====

Tested on: intracellular K. pneumoniae
Assay: Intracellular survival of K. pneumoniae (RB120) in bladder epithelial cells (gentamicin protection assay, CFUs from plated cell lysates)
Assay type: cell-based, Klebsiella pneumoniae
Details: Klebsiella pneumoniae, Epithelial cell; 24 hours of treatment, bladder epithelial cells; read-out: EC50 of dose-dependent killing / antimicrobial activity against intracellular K. pneumoniae
Entries and their EC50
Answer in nM, number only, no unit symbol.

molecule="C[C@@H](Oc1cc(-c2cnn(C3CCNCC3)c2)cnc1N)c1c(Cl)ccc(F)c1Cl [(R)-crizotinib]" val=1100

Turning now to a further molecule:
Could you share which EC50 value was measured for Clc1ccccc1CNCC1CCC(CNCc2ccccc2Cl)CC1 (centres unmarked) [AY 9944] ?
940
